assay: In vitro proton relaxivity in human serum; assay type: physicochemical; conditions: 60 MHz, 40° C.
OBSERVATION TYPE: r1 (longitudinal relaxivity) (mM⁻¹ s⁻¹)
// note: answer is a bare numeric in mM⁻¹ s⁻¹

Field: example entries. Status: answers known.
CN1CCN2Cc3cccc(n3)CN(CC1)C(CC(=O)NCC(O)CO)C(=O)[O][Mn][O]C(=O)C2CC(=O)NCC(O)CO (stereo not drawn) [Mn Chelate 10a]    3.8
CN1CCN2Cc3cccc(n3)CN(CC1)C(CCC(=O)N(CCO)CCO)C(=O)[O][Mn][O]C(=O)C2CCC(=O)N(CCO)CCO (stereo not drawn) [Mn Chelate 9]    4.3

Now consider a different compound.
Given the compound CN1CCN2Cc3cccc(n3)CN(CC1)C(CCC(=O)NC(CO)(CO)CO)C(=O)[O][Mn][O]C(=O)C2CCC(=O)NC(CO)(CO)CO (stereo not drawn) [Mn Chelate 11] , what is its reported r1 (longitudinal relaxivity)?
4.6
